Biological target: Aspartate--tRNA(Asp/Asn) ligase (Mycobacterium tuberculosis (strain ATCC 25618 / H37Rv)) (UniProt P9WFW3)
Sequence (whole entry): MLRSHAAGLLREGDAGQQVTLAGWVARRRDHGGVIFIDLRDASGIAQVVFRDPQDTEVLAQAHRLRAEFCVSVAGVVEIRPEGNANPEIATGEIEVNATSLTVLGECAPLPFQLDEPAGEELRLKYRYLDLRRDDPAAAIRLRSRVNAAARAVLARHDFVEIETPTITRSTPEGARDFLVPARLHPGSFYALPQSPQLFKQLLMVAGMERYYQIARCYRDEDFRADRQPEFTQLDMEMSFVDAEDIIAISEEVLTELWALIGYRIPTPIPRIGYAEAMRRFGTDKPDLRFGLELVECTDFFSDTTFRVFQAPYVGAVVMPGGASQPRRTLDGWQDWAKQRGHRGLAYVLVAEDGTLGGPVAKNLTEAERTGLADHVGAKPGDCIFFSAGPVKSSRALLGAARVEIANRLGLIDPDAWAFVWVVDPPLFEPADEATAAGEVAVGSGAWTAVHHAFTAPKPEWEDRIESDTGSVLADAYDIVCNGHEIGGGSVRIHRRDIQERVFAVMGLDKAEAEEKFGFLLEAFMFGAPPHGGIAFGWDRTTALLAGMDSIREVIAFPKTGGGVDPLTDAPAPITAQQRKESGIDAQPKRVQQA
Assay: Assay for Asp RNA synthetase-1 from Mycobacterium tuberculosis
Format: functional
Set-up: scale not given: in the data most compounds retested in dose-response had high values
Conditions: 30 µM
outcome.measure: Percent Effect

1. CN(C)C(=O)c1ccc2c(c1)N(C)C(CC(=O)NCCC(C)(C)C)CO2 (stereo unspecified) :: 0.279%
2. Cc1nc(C)n(C2CCCN(C(=O)CCCn3ccnc3)C2)n1 (stereo unspecified) :: -0.127%
3. Cn1nccc1C(=O)N1CCOC(Cc2cccc(C(F)(F)F)c2)C1 (stereo unspecified) :: -2.91%
4. CCn1cnnc1CNC(=O)N1CCN(c2cccc(OC)c2)CC1 :: 0.152%
5. COc1ccccc1OC1(C(=O)O)CCN(c2nccnc2C)CC1 :: 1.09%
6. Cc1[nH]c(=O)c(C#N)cc1C(=O)N1C[C@@H](CN2CCCC2)C[C@H](CO)C1 :: -2.04%
7. CCn1nc(C)c2nc(C(C)C)nc(NCCOC)c21 :: -2.09%
8. CN(C)C(=O)COCc1cncc2c1CCN(Cc1nccn1C)C2 :: 10.5%
9. Cc1cnc(C(=O)N(CCN(C)C)Cc2ccc(Cl)cc2)cn1 :: -1.59%
10. CN(C)C(=O)CN1C(=O)CCC12CCN(Cc1ccc(F)cc1)CC2 :: 1.43%
11. CS(=O)(=O)NCCCNC(=O)c1cccc(-n2cccc2)c1 :: -2.88%

###

target: Aspartate--tRNA(Asp/Asn) ligase (Mycobacterium tuberculosis (strain ATCC 25618 / H37Rv)) (UniProt P9WFW3); experiment: Assay for Asp RNA synthetase-1 from Mycobacterium tuberculosis; assay type: functional; set-up: scale not given: in the data most compounds retested in dose-response had high values; details: 30 µM
The following compounds are shown together with reported Percent Effect values.
outcome.measure: Percent Effect (%)

1. COc1cccc(S(=O)(=O)NC2CNC(=O)C2)c1 (stereo not given) :: -3.48
2. Cc1cc(N2CCC(N(C)C(=O)c3ccccc3)CC2)nc(C)n1 :: -5.32
3. Cc1ccc2c(c1)CCC21CCN(C(=O)CO)CC1 :: 5.32
4. COCCC(=O)N1CCn2c(COCC3CC3)cnc2C1C (stereo not given) :: 3.62
5. CCOCCCn1c(NC(=O)c2ccc(C)nc2)nc2ccccc21 :: -3.79
6. CCc1ccc(C(=O)N2CCCC(c3noc(CC)n3)C2)o1 (stereo not given) :: -2.33
7. COc1c(CNC2CCc3cc(F)ccc32)c(C)nn1C (stereo not given) :: -5.95
8. COc1cccc(CNC(=O)C(c2cccc(F)c2)N2CCOCC2)c1 (stereo not given) :: 1.86
9. COc1ccc(NC(=O)NC(C)c2nc[nH]n2)cc1 (stereo not given) :: -1.71
10. COc1ccc(NC(=O)CNc2cccc3c2CCCC3)c(OC)c1 :: 1
11. O=C1[C@H]2CN(Cc3ccoc3)C[C@H]2CN1Cc1ccncc1 :: 3.69
12. COCC1CN(Cc2ccsc2)Cc2nn(C)cc21 (stereo not given) :: 15.7
13. CC(C)c1nnc2n1CCN(CC(=O)Nc1sccc1C#N)C2 :: 8.51
14. CCOC(=O)N1CCN(C(=O)c2sc(-c3ccccc3F)nc2C)CC1 :: 3.76
15. CN(C)CCN1CCCC12CCN(C(=O)c1cccn1C)CC2 :: -5.96
16. CC(=O)N1CCN(C(=O)CN2CCc3c(ncn3C3CC3)C2)CC1 :: 1.82
17. OCC1CCCN1c1cc(N2CCc3ccccc3C2)ncn1 (stereo not given) :: 1.24
18. Cc1nc(C)n(CC2CCCCN2Cc2ncc(C(C)(C)C)o2)n1 (stereo not given) :: -7.07
19. Cc1cn(CC(=O)NC2CCN(S(C)(=O)=O)CC2)c2ccccc12 :: 2.86
20. Cc1cnn(CC2CN(CCS(=O)(=O)c3ccccc3)CCO2)c1 (stereo not given) :: -0.24
21. CCS(=O)(=O)c1ccccc1C(=O)NCc1ccnc(N(C)C)c1 :: -3.31
22. CCOCC1CN(Cc2cccc(C#N)c2)Cc2nccn2C1 (stereo not given) :: -2.92
23. CN(Cc1ccc(F)cc1)C(=O)NCc1nnc2n1CCCCC2 :: -5.74
24. CN(C)c1cc(CNC(=O)c2ccc(F)cc2F)ccn1 :: -4.92
25. CN(Cc1cncnc1)[C@H]1CN(CC2CC2)[C@@H]2CCCO[C@@H]21 :: 3.35
